Recorded values, source patent US10703746B2.

Biological target: IDH1 R132H (Homo sapiens, UniProt O75874, R132H)
Sequence (O75874 whole entry R132H): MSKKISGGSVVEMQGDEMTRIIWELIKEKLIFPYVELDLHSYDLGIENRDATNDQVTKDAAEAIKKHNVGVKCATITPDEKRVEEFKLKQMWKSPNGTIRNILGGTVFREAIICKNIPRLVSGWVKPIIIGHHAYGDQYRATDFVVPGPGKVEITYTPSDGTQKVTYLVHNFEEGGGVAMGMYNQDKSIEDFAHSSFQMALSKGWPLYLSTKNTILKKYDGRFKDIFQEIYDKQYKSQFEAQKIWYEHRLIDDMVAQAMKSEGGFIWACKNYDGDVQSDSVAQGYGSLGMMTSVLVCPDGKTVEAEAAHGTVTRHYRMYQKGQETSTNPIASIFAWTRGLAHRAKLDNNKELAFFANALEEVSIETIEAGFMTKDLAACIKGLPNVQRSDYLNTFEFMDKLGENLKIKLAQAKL
Assay: IDH1 R132H enzymatic assay (NADPH depletion coupled to diaphorase/resazurin)
Type: biochemical
Details: enzymatic inhibition, IDH1 R132H
assay_endpoint: IC50

A selection of reference data follows.
- Cc1cccc(CO)c1-n1c2c(cc(-c3nc(-c4ccc(Cl)cc4)cs3)c1=O)C(=O)CCC2: 1 to 5 µM
- CCOc1cccc(OCC)c1-n1c2c(cc(-c3nc(-c4ccc(Cl)cc4)cs3)c1=O)C(=O)CCC2: 0.3 to 1 µM
- CCc1cccc(CC)c1-n1c(CC(C)C)c(C(=O)N2CCNCC2)cc(-c2nc(-c3ccc(Cl)cc3C)c(C)s2)c1=O: 1 to 5 µM

We next turn to a different compound, shown below.
Challenge: Identify IC50 associated with the compound CCc1cccc(CC)c1-n1c(C=C(C)C)c(C(=O)N2CCNC(=O)C2C)cc(-c2nc(-c3ccc(Cl)cc3)cs2)c1=O (stereo not shown)
Response given: < 0.3 µM
